# EXPERIMENT_NOTES: label from the status in PepcDB records;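 note: failed if final PepcDB status was selected cloned or expressed and not failed if soluble or beyond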
READOUT: protein production

| SEQUENCE_DATA | OBSERVED_RESULT |
| --- | --- |
| PDMDPRCPARADPRKLHDAIARFGVNHLFGSPALLRVLAEYGKPLPTLRCVTSAGAPVPPYVVAQIRALLSDEAQFLTPYGATECLPIAVIESRE | failed |
| MELTQTHLLPVPLQTAWDALNDPAVLQRCIPGCESVTAATEHAYDIAMTAAVGPVKARFKGRMELADIVPPRSYTLHFDGQGGAAGFGKGTAQVQLAPEGPTVTRLSYTAHAQVGGKLAQIGSRLIDGAARKLADEFFQRFASEFGPAGGTGPLDAAPADQAIPDLASGELAAHGAPRTPLISPAVQPRNPWPWIIVALVAIVAAYLFLHHGA | failed |
| MATSRLQLEGDDSVHLHITHANLKSFSADARFSPQMSVEAVKEKLWKKCGTSVNSMALELYDDSGSKVAVLSDDSRPLGFFSPFDGFRLHIIDLDPSSVTTGGWLEDTSLVEKYNISEEDYAKRTDSFRKFKEKRVSQNPVAAEAKTKENYMEDLCANIKVGDRCQVEPGEKRGMVKYVGRAESLGPGYWVGIQYDEPLGKHDGMVKGTRFFECPRLQGGMVRPDKVKVGDYPERDPFEEDEI | failed |
| LTVTVTHSNEKHDLHVTSQQGSSEPVVQDLAQVVEEVIGVPQSFQKLIFKGKSLKEMETPLSALGIQDGCRVMLIGKKN | not failed |
| MGHHHHHHSHMIDSIRVEGFRGLKELELSSLRRINVIVGRNNSGKSTLLEALSLFLGSSDPGTFGNVLHEILIWRGWYGIQTVDDLFYNGGDSFSISSTGKTLEALNSKHSLEFKLNGEPFYKIDRESIRRLASQAVLLARFSPKENFEFLTPLTFRRFGYAESLYSYAYERKVVKDSIKVLNEAYPEVEGFSPLLKEDNWVLYVETKYGVYPYYLMGEGFKSAMIISFLSSLLRDGVLLIDSAEAFHHP | failed |
| MKWPWWPVCVPLSKRLTLPLPSTANPVVQPSRLALACANRLFEAADNRERFLQALMTPPAYPATVLWCGEPAAALPFAALPPLPWQPPWVSRFVAGSPTGQHPLHAAGAYYCLDSSSVFAAVPLLTLPQEPSLVIDVCAAPGGKSLFAWRSLHPRYLICNETIGKRVGKLIGNLKRCRVHPVGVTSWDSEVLAAEFQGTADVVIVDAPCSGQSLLAKGQKAEGCFHPLTIRHNQRRQKRILAAATTLVRPGGWLLYSTCTFSQDENEDVAAWLMAKFPHLLPQPVPALAAYQSHLAAFPCYRLWPHQGEGAGAFTILWQHQGKGESNPLPDLGNRRAFGDRWRWQSSSQPA | failed |
| PGAPSTVRISKNVDGIHLSWEPPTSPSGNILEYSAYLAIRTAQMQDNPSQLVFMRIYCGLKTSCTVTAGQLANAHIDYTSRPAIVFRISAKNEKGYGPATQIRWLQGNSK | not failed |
| MESNLTYTEALLKLEEIVEQIEDDSIMLDTLTEKVMQANELIKYCETKLRTIEGDVRDVLQ | failed |
| MTKNKKGKNKEVINNYEEEEDYNIIDHDENAEVDVIPEPDFNSNMVYLNIYDLDSVSKVVNTVARSVGAGAFHAGVEVYGYEYSFGYIMDGETGVTKTNARVMIQKNNEILKNIKTYRIHVNIYIYIFLLVFSKTPLTKEEVDLLVEVMKLQWIGDTYDILSRNCLNYADYFCNLLDVGGIPEWVMSLQKKVTWVKSNINIAASKLKELNKAAGIPNVINYLKKKYEDSNSSDDYKGCKVVVK | failed |
| MLNLSQNGCSVWVASSTEMVLTPTAVALGKFDGVHLGHQRVIQPVLQSTRSAQTWGDALDSSAQSANPPAAPQERIYSTVVTFRPHPQEFFTGQARTWLTPLDEKVQQLRSLGVDQLVLLPFDKELTALSPEEFVEKILVQQLRCQRISVGQDFCFGKQRRGTAKDLQLIAAKYHIPVSIVPLQTSDGQFLEDGNCGSFESLEDAPISTSLIRQALETGDIKTANRFLGRPYILIGVVVEGEQLGRTIGFPTANLELPKDKFVPRQGVYAVRVKILGESADANIPLEILGVMNIGNRPTVNGTYSSVEVYLLDWSGDLYGKELAVQLVDFLRPEQKFPSLEALKAQIQQDCTVARQILSREN | failed |
| MWTTNIIKTPRGKFEYFLKGEGPPLCVTHLYSEYNDNGNTFANPFTDHYSVYLVNLKGCGNSDSAKNDSEYSMTETIKDLEAIREALYINKWGFAGHSAGGMLALVYATEAQESLTKIIVGGAAASKEYASHKDSIYCSKNVKFNRIVSIMNALNDDSTVQEERKALSREWALMSFYSEEKLEEALKLPNSGKTVGNRLNYFRQVEYKDYDVRQKLKFVKIPSFIYCGKHDVQCPYIFSCEIANLIPNATLTKFEESNHNPFVEEIDKFNQFVNDTL | not failed |
| MSLRILIVDDEKLTRDGLIANINWKALSFDQIDQADDGINAIQIALKHPPNVLLTDVRMPRMDGIELVDNILKLYPDCSVIFMSGYSDKEYLKAAIKFRAIRYVEKPIDPSEIMDALKQSIQTVLQHQAQQDSEGHHHHHH | not failed |
| MENSDETKMSEEILALVDEFQQAWPLEGFGGALEMKGRRLDLQGIRVLKKGPQDGVARSSCYGDCRSEDDEATEWITFQVKRVKKPKGDHKKTPGKKVETGQIENGHRYQANLEITGPKVASPGPQGKKRDYQRLGWPSPDECLKLRWVELTAIVSTWLAVSSKNIDITEHIDFATPIQQPAMEPLCNGNLPTSMHTLDHLHGVSNRASLHYTGESQLTEVLQNLGKDQYPQQSLEQIGTRIAKVLEKSQTSWVLSSMAALYWRVKGQGKKAIDCLRQALHYAPHQMKDVPLISLANILHNAKLWNDAVIVATMAVEIAPHFAVNHFTLGNVYVAMEEFEKALVWYESTLKLQPEFVPAKNRIQTIQCHLMLKKGRRSP | failed |
